- Tested on: spliced XBP1
- measurement_notes: Spliced XBP1 mRNA measurement test (RT-PCR, tunicamycin-induced ER stress in MCF-7 cells)
- Assay type: cell-based
- condition_summary: compound pre-treated for 1 hour, then 2 µg/mL tunicamycin for 6 or 24 hours, spliced XBP1 corrected by total XBP1
- Method: With respect to these synthetic compounds, reverse transcription polymerase chain reaction (RT-PCR) experiments were conducted on MCF-7 cancer cells to confirm the effect thereof on the mRNA and protein amounts of spliced XBP1, which is the target of IRE endonuclease. A reverse transcription polymerase chain reaction is a test method in which RNA is extracted from cells, reverse transcriptase is used to make cDNA, and relative mRNA expression level is measured through a polymerase chain reaction. […]
property_name: IC50

| molecule | result |
| --- | --- |
| COc1cc2c(C)c(CC(=O)N3CCOCC3)c(=O)oc2c(C=O)c1O [MKC8866, reference compound] | < 100 nM |
